# Assay overview: Half life in rat
# Assay type: ADME, organism-based
# Measurement parameters: in vivo

Structure smiles string: O=C(NO)[C@@]1(O)COCC[C@H]1S(=O)(=O)c1ccc(OCc2ccc(Cl)cc2Cl)cc1
Readout unit: h
half-life: 5

###

# Measured target: Interstitial collagenase (Homo sapiens, UniProt P03956)
# Sequence (P03956 whole entry): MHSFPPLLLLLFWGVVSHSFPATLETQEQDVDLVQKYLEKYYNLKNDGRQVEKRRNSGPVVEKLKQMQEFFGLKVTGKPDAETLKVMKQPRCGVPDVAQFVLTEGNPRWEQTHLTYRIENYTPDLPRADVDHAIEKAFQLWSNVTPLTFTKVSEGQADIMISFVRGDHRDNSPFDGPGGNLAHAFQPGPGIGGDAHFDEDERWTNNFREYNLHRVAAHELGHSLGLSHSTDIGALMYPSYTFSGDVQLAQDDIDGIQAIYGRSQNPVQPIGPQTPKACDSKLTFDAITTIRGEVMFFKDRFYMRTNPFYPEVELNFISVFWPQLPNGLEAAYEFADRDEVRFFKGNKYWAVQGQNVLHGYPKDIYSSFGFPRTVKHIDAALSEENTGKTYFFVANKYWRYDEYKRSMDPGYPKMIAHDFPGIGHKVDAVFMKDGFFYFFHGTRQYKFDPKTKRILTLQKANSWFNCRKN

Structure smiles string: Cc1ccc(COc2ccc(S(=O)(=O)[C@@H]3CCOC[C@]3(O)C(=O)NO)cc2)c(C)c1
Measured target: Interstitial collagenase (Homo sapiens, UniProt P03956)
Readout unit: µM
Sign qualifier: =
IC50: 19
//
Structure smiles string: Cc1ccc(-c2ccc(S(=O)(=O)[C@@H]3CCOC[C@]3(O)C(=O)NO)cc2)cc1
Measured target: Interstitial collagenase (Homo sapiens, UniProt P03956)
Readout unit: µM
Sign qualifier: <
IC50: 0.03
//
Structure smiles string: Cc1ccccc1Oc1ccc(S(=O)(=O)[C@@H]2CCOC[C@]2(O)C(=O)NO)cc1
Measured target: Interstitial collagenase (Homo sapiens, UniProt P03956)
Readout unit: µM
Sign qualifier: =
IC50: 4.7
//
Structure smiles string: Cc1ccccc1COc1ccc(S(=O)(=O)[C@@H]2CCOC[C@]2(O)C(=O)NO)cc1
Measured target: Interstitial collagenase (Homo sapiens, UniProt P03956)
Readout unit: µM
Sign qualifier: =
IC50: 12
//
Structure smiles string: O=C(NO)[C@@]1(O)COCC[C@H]1S(=O)(=O)c1ccc(OCc2ccccc2Cl)cc1
Measured target: Interstitial collagenase (Homo sapiens, UniProt P03956)
Readout unit: µM
Sign qualifier: =
IC50: 2.8
